The reported numbers originate from patent US20080058636A1.

- ASSAY_SYSTEM: human collagen type I (acid soluble, extracted from placenta, Sigma C7774) (human) (UniProt P02452)
- Sequence (P02452 162-1218 limits assumed, chain 1 of 2): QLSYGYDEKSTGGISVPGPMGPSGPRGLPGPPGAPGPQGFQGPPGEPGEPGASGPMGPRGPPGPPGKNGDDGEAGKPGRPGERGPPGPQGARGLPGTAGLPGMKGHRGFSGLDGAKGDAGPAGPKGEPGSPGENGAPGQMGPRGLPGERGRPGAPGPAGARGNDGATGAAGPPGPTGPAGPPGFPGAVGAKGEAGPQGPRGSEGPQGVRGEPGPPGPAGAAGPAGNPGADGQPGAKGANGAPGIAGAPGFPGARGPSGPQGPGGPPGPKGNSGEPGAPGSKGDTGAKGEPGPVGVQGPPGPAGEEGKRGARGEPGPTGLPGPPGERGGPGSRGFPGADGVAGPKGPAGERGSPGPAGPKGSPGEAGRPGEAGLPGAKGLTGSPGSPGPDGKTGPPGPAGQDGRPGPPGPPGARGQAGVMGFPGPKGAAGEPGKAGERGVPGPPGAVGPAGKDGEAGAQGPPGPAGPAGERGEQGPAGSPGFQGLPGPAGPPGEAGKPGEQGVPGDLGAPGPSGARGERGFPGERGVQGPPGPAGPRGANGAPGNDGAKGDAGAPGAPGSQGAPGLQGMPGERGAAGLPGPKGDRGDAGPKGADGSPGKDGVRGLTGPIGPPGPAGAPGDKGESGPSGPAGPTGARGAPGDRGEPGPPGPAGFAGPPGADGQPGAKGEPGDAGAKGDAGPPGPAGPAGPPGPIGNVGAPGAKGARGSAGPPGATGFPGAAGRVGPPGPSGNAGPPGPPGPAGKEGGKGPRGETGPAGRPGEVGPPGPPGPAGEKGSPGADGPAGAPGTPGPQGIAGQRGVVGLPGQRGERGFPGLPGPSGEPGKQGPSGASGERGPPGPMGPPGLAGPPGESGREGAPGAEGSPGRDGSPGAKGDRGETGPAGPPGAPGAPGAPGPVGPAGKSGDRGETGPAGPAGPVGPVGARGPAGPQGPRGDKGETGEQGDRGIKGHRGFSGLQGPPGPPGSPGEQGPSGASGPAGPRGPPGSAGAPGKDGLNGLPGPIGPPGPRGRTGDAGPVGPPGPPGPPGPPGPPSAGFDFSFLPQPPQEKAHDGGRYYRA
- Sequence (P08123 80-1119 limits assumed, chain 2 of 2, further chain): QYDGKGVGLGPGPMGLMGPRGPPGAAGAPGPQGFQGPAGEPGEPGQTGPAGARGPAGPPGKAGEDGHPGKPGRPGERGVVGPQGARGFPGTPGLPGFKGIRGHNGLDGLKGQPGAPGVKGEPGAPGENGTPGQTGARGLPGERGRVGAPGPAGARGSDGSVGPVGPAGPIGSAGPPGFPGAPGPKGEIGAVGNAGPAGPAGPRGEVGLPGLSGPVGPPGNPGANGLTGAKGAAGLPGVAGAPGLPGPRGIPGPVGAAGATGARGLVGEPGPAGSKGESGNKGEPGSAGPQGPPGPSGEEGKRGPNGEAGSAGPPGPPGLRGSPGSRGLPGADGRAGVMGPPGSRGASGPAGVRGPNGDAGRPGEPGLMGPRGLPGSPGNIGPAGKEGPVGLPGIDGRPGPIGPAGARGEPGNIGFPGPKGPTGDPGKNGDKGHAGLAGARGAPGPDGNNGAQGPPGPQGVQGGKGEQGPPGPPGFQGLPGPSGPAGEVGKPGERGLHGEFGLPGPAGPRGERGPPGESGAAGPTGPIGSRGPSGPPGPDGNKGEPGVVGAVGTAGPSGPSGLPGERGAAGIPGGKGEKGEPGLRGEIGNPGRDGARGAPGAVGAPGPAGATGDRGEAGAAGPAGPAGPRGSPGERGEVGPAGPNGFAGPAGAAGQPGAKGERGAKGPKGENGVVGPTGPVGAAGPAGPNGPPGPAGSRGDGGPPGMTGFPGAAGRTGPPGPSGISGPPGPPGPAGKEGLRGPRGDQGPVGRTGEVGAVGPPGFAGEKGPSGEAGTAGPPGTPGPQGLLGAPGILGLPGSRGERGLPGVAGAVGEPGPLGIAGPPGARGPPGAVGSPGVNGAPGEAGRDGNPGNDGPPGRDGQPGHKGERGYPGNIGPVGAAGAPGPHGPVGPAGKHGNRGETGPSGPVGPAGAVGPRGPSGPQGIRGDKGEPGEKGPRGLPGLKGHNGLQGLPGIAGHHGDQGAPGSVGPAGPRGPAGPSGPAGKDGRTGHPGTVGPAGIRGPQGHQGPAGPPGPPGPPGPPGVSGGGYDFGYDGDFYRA
- TEST_NAME: dried collagen assay, 5 uM each
Bridge positions count the residues as written; N and C are the ends. Ends that are not written are not given here. GdT = GdDTPA-thiourea
Label key: Condition met means Human binding under 60%; Condition not met means Human binding of 60% or more.

Does GQWHCTTLFPHHYCIYG [Compound ID 927] have Human binding strictly under 60%? Condition not met

Does GQWHCTTFFPHHYCLYG [Compound ID 929] have Human binding strictly under 60%? Condition met

Does GQWTCSGDAYTWHCNYE [Compound ID 838] have Human binding strictly under 60%? Condition not met

Does GQWHCTTRFPHHYCKYG [Compound ID 815] have Human binding strictly under 60%? Condition not met

Does GKWHCYTYFPHHYCLYVK [Compound ID 989] have Human binding strictly under 60%? Condition not met

Does GdT-GQWHCYTYFPHHYCLYGK (disulfide 5-14 (inferred); not fully specified (residue 18, C-terminus)) [Compound ID 994] have Human binding strictly under 60%? Condition not met

Does KKGQWHCTTYFPHHYCLYG [Compound ID 960] have Human binding strictly under 60%? Condition met

Does GQWACTTRFPHHYCLYG [Compound ID 876] have Human binding strictly under 60%? Condition met

Does DWTCSADEYTWHCNYE [Compound ID 835] have Human binding strictly under 60%? Condition met
